// data source = paper PMC11022046

experiment: Caco-2 permeability assay; format: in vitro ADME; settings: human
Where a name gives a salt, the structure may show the parent alone.

| compound | efflux ratio at 2 h, 5 μM |
| --- | --- |
| CCCCC(CC)CNC(=N)NC(=N)NCCCCCCNC(=N)NC(=N)NCC(CC)CCCC (stereo not shown) [Alexidine, Alexidine dihydrochloride] | > 5.37 |

----------
assay: In vivo pharmacokinetics, single IP dose; parameters: species or system BALB/c mice; details: female, BALB/c, mouse, plasma, ip, 5 mg/kg
Where a name gives a salt, the structure may show the parent alone.
measurementLabel: half-life (h)

| compound | measurementLabel | readoutNumber |
| --- | --- | --- |
| CCCCC(CC)CNC(=N)NC(=N)NCCCCCCNC(=N)NC(=N)NCC(CC)CCCC (stereo not shown) [Alexidine, Alexidine dihydrochloride] | half-life | 9.5 |
